experiment: small-molecule binders of probe aNOTCH2, primary screen, biochemical, small-molecule microarray, 635/667 nm fluorescence (AID 1121); settings: higher = more signal;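 further: score merges feature fluorescence read at 667 nm with its signal to noise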
readout type: composite z-score

compound	result
COc1ccc(O[C@H]2C=C[C@@H](c3ccccc3)O[C@@H]2CON=CC[C@@H]2C=C[C@H](OC(C)=O)[C@@H](COC(C)=O)O2)cc1	-0.145
C=CC[C@@H]1C=C[C@H](ON=C(C)CCN2CCc3nc(-c4ccccc4)c(-c4ccccc4)cc3C2)[C@@H](CO)O1	-0.0995
O=C(NN=C1C[C@@H](O)[C@@H](O)[C@@H]2[C@@H]3C(=O)N(C4CCCCC4)C(=O)[C@@H]3CC[C@@H]12)OCc1ccccc1	-0.258
CC(C)CCN1CCc2nc(COc3ccccc3)c3c(c2C1)CO[C@@H](C)C3	-0.0797
O=C1CCCC(C2=CCCCC2=O)C1 (stereo not drawn)	-0.112
COc1ccc(COC(=O)NN=C2C[C@@H](O)[C@@H](O)[C@@H]3[C@@H]4C(=O)N(C5CCCCC5)C(=O)[C@@H]4CC[C@H]23)cc1	-0.28
CO[C@H]1COC(=O)[C@H](C)NC(=O)[C@@H](C)COC(=O)[C@H]2CCCN2C(=O)CC=C[C@H]1C	-0.148
CC(=O)OC[C@H]1O[C@@H](ON=C(C)CCN2CCCc3nc(C)c(C)cc32)[C@H](OC(C)=O)[C@@H](OC(C)=O)[C@@H]1OC(C)=O	-0.0695
COc1ccc(O[C@H]2C=C[C@@H](c3ccccc3)O[C@@H]2COC(=O)CCC(C)=NO[C@@H]2O[C@H](COC(C)=O)[C@@H](OC(C)=O)[C@H](OC(C)=O)[C@H]2OC(C)=O)cc1	-0.211
O=c1n(Cc2cc3c(cc2Cl)OCO3)c(=O)n2n1CC[C@@H]1C(=NOC[C@@H](O)COCc3ccco3)[C@H]3O[C@H]3[C@@H](O)[C@@H]12	-0.0974
CON=Cc1ccc(C(=O)N2[C@H](c3ccc(C)cc3)[C@@H](C)CC[C@H]2C(=O)OC)cc1	-0.202
O=C(NN=C1C[C@@H](O)[C@@H](O)[C@@H]2[C@@H]3C(=O)N(C4CCCCC4)C(=O)[C@@H]3CC[C@H]12)OCc1ccccc1	0.179
COc1cccc([C@H]2Oc3ccc(OC)cc3C(=NOC[C@@H](C)[C@H](OCc3ccccc3)C(C)C)[C@@H]2O)c1	-0.0512
COc1cccc([C@H]2Oc3ccc(OC)cc3C(=NOC[C@@H](O)[C@H]3O[C@@H]4OC(C)(C)O[C@@H]4[C@H]3O)[C@@H]2O)c1	-0.139
CC(C)=CCCC(C)=CCON=C1C[C@@H](O)[C@@H](O)[C@@H]2[C@@H]3C(=O)N(C(C)(C)C)C(=O)[C@@H]3CC[C@@H]12	-0.0859
CC(C)(C)N1C(=O)[C@H]2[C@H]3[C@H](O)[C@H](O)CC(=O)[C@H]3CC[C@H]2C1=O	-0.155
CCOC(=O)[C@H](CC(C)C)NC(=O)CCC1CC(OC(=O)NCc2ccc3c(c2)OCO3)CC2(CCCC(COC(=O)NCc3cccc(C(F)(F)F)c3)O2)O1 (stereo partly drawn)	-0.169
COc1ccc(O[C@H]2C=C[C@@H](c3ccccc3)O[C@@H]2CON=C2[C@H]3CCn4c(=O)n(-c5ccccc5)c(=O)n4[C@H]3[C@H](O)[C@@H]3O[C@H]23)cc1	-0.132
Cc1ccc(S(=O)(=O)N[C@H]2COC(=O)CC=C[C@H](C)[C@@H](NS(=O)(=O)c3ccc(C)cc3)COC(=O)CC=C[C@@H]2C)cc1	-0.14
Cn1c(=O)n2n(c1=O)[C@H]1[C@H](O)[C@@H]3O[C@@H]3C(=O)[C@H]1CC2	-0.124
CC(C)=CCCC(C)=CCON=C1C[C@@H](O)[C@@H](O)[C@@H]2[C@@H]3C(=O)N(c4cccc(Oc5ccccc5)c4)C(=O)[C@@H]3CC[C@@H]12	-0.0686
C#CCCCON=C1C[C@@H](O)[C@@H](O)[C@@H]2[C@@H]3C(=O)N(CCC(=O)OCC)C(=O)[C@@H]3CC[C@H]12	-0.0837
O=C1[C@H]2[C@H]3[C@H](O)[C@H](O)CC(=NOC[C@@H](O)COCc4ccco4)[C@H]3CC[C@H]2C(=O)N1c1ccc(F)cc1F	-0.146
CC(CCN1CCCCc2nc(C)c(C)cc21)=NOC[C@@H](C)[C@H](OCc1ccccc1)C(C)C	-0.298
COC(=O)[C@@H]1CC[C@H](C)[C@@H](c2ccc(C)cc2)N1C(=O)c1ccc(C=NOC[C@@H](C)[C@H](OCc2ccccc2)C(C)C)cc1	-0.185
O=C1[C@H]2[C@H]3[C@H](O)[C@H](O)CC(=NOCc4ccccc4)[C@@H]3CC[C@H]2C(=O)N1Cc1ccc2c(c1)OCO2	-0.0131
CCOC(=O)C1=NO[C@@]2(C=C(Br)C3(OCCCO3)[C@H]3O[C@H]32)C1	-0.14
O=C1[C@H]2[C@H]3[C@H](O)[C@H](O)CC(=NO[C@@H]4O[C@H](CO)[C@@H](O)[C@H](O)[C@H]4O)[C@H]3CC[C@H]2C(=O)N1c1cccc(Oc2ccccc2)c1	-0.133

* * *

system: Sonic hedgehog protein (Shh); assay: small-molecule binders of Shh protein, primary screen, biochemical, small-molecule microarray, 635/667 nm fluorescence (AID 1151); settings: small-molecule microarray binding, 635 nm fluorescence; higher = more signal;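 further: Shh protein binding to compounds spotted on small-molecule microarray slides; score combines spot fluorescence intensity with signal-to-noise across triplicate slides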
Decide by composite z-score: equal to or exceeding 0.5 means 1, less means -1.

> print(dat)
                                    compound                  study.system  class.label
 1      CON=C[C@@H](C)[C@H](OCc1ccccc1)C(C)C  Sonic hedgehog protein (Shh)           -1
 2  O=C(NN=C1C[C@@H](O)[C@@H](O)[C@@H]2[C@@H]3C(=O)N(C[C@@H]4CCCO4)C(=O)[C@@H]3CC[C@H]12)OCc1ccccc1  Sonic hedgehog protein (Shh)           -1
 3  Cc1ccc(S(=O)(=O)NC(CCc2ccccc2)CC(=O)C(C)(C)C)cc1 (stereo not given)  Sonic hedgehog protein (Shh)            1
 4  Cc1cc2c(nc1C)CCCCN2CC(C)ON=C1[C@H]2CCn3c(=O)n(-c4ccccc4)c(=O)n3[C@H]2[C@H](O)[C@@H]2O[C@H]12 (stereo not given in full)  Sonic hedgehog protein (Shh)            1
 5  CC(C)(C)N1C(=O)[C@H]2[C@H]3[C@H](O)[C@H](O)CC(=O)[C@@H]3CC[C@H]2C1=O  Sonic hedgehog protein (Shh)            1
 6  CC(CCN1CCCCc2nc(C)c(C)cc21)=NO[C@@H](C)c1cn([C@H](CO)Cc2ccccc2)nn1  Sonic hedgehog protein (Shh)            1
 7  CCOC(=O)[C@H](Cc1ccccc1)NC(=O)CCC1CC(OC(=O)NCc2cccc3ccccc23)CC2(CCCC(COC(=O)NCc3ccccc3)O2)O1 (stereo not given in full)  Sonic hedgehog protein (Shh)            1
 8  CO[C@H]1COC(=O)[C@H](C)NC(=O)[C@@H](C)COC(=O)[C@H]2CCCN2C(=O)CC=C[C@H]1C  Sonic hedgehog protein (Shh)            1
 9  CON=CC[C@@H]1C=C[C@H](OC(C)=O)[C@@H](COC(C)=O)O1  Sonic hedgehog protein (Shh)            1
10  O=C1[C@H]2[C@H]3[C@H](O)[C@H](O)CC(=NO[C@@H]4O[C@H](CO)[C@@H](O)[C@H](O)[C@H]4O)[C@H]3CC[C@H]2C(=O)N1c1cccc(Oc2ccccc2)c1  Sonic hedgehog protein (Shh)            1
11  C[C@@H](c1ccccc1)N1C(=O)[C@H]2[C@H]3[C@H](O)[C@H](O)CC(=NO[C@@H]4O[C@H](CO)[C@@H](O)[C@H](O)[C@H]4O)[C@@H]3CC[C@H]2C1=O  Sonic hedgehog protein (Shh)           -1
12  CO[C@H]1COC(=O)CC=C[C@@H](C)[C@H](NS(=O)(=O)c2ccc(C)cc2)COC(=O)CCC[C@@H]1C  Sonic hedgehog protein (Shh)           -1
13  COC(=O)[C@@H]1CC[C@H](C)[C@@H](c2ccc(C)cc2)N1C(=O)c1ccc(C=NO[C@H](C)c2cn([C@H](CO)Cc3ccccc3)nn2)cc1  Sonic hedgehog protein (Shh)            1
14  CC(C)=CCCC(C)=CCON=C1C[C@@H](O)[C@@H](O)[C@@H]2[C@@H]3C(=O)N(c4ccc(F)cc4F)C(=O)[C@@H]3CC[C@H]12  Sonic hedgehog protein (Shh)            1
15  C[C@@H](c1ccccc1)N1C(=O)[C@H]2[C@H]3[C@H](O)[C@H](O)CC(=NO[C@@H]4O[C@H](CO)[C@@H](O)[C@H](O)[C@H]4O)[C@H]3CC[C@H]2C1=O  Sonic hedgehog protein (Shh)           -1

Each recorded value in this set is attributed to PubChem BioAssay.
